Known GI50 of a selection of compounds
System: MDA-N
Procedure details: NCI tumour cell line growth inhibition, 48 h
Activity calls are given as the source filed them. No stated cut-off is given here; in the data, active = GI50 up to about 1.1 µM and inactive = higher.
Quantity: GI50

>>> endpoint_result("c1ccc(/C(=N/Nc2ccccn2)c2ncccn2)cc1")
"16.5 µM (inactive)"
>>> endpoint_result("Cc1ccc(C(=O)Oc2ccc(/C=C3\\CCC/C(=C\\c4ccc(OC(=O)c5ccc(C)cc5)cc4)C3=O)cc2)cc1")
"> 100 µM (inactive)"
>>> endpoint_result("O=C(Nc1ccc(Cl)c(Cl)c1)N1N=C2c3ccccc3CCC2C1c1ccc(Cl)cc1 (configuration not stated)")
"> 100 µM (inactive)"
>>> endpoint_result("C[C@]12CCC(O)CC1=CC[C@@H]1[C@@H]2CC[C@]2(C)C(=O)[C@H](n3ccnc3)C[C@@H]12 (some centres not stated)")
"57.4 µM (inactive)"
>>> endpoint_result("CNC1=C(C)C(=O)C(O)=C([C@H](C)CCC=C(C)C)C1=O")
"29.6 µM (inactive)"
>>> endpoint_result("C=C(Br)CNCC(=C)Br")
"> 100 µM (inactive)"
>>> endpoint_result("Cn1c(=O)n2c(=O)n(C)c(=O)n2c1=O")
"> 100 µM (inactive)"
>>> endpoint_result("Cc1c(/N=C/C=C/c2ccccc2)c(=O)n(-c2ccccc2)n1C")
"18.5 µM (inactive)"
>>> endpoint_result("CCCCCCCCCCCCCCCCOc1ccc(/C=C/C2=[N+](CCCl)CCO2)cc1")
"> 100 µM (inactive)"
>>> endpoint_result("COC(=O)c1ccc(OCc2ccc3nc(-c4ccccc4)c(Cl)nc3c2)cc1")
"> 100 µM (inactive)"
>>> endpoint_result("O=C1c2ccccc2C(=O)N1CCCCCCNOCCCN1C(=O)c2ccccc2C1=O")
"31.6 µM (inactive)"
>>> endpoint_result("CN(C)CCNC(=O)Cn1ccc(=O)c2cc([N+](=O)[O-])ccc21")
"> 100 µM (inactive)"
>>> endpoint_result("CC1CCc2sc3nc(S)n(-c4ccccc4)c(=O)c3c2C1 (configuration not stated)")
"> 100 µM (inactive)"
>>> endpoint_result("CC1CCCC(CC(=O)O)(CC(=O)O)C1 (configuration not stated)")
"> 100 µM (inactive)"
>>> endpoint_result("COc1ccc(-c2nc3ccc(C)cc3o2)c(OC)c1")
"23.9 µM (inactive)"
>>> endpoint_result("NC(=O)ON=C1CCN(Cc2ccccc2)CC1")
"> 100 µM (inactive)"
>>> endpoint_result("COc1ccc(OC)c(NC2=NCCO2)c1")
"45.4 µM (inactive)"
>>> endpoint_result("COc1ccccc1C1ON=C(c2ccc([N+](=O)[O-])cc2)N1C12CC3CC(CC(C3)C1)C2 (configuration not stated)")
"> 100 µM (inactive)"
>>> endpoint_result("Cc1cc(O)nc(NN2C(Cl)C(=O)C2c2ccccc2O)n1 (configuration not stated)")
"4.36 µM (inactive)"
>>> endpoint_result("COc1ccc(-c2cc(-c3ccc(C)cc3)n(C3OC(COC(C)=O)C(OC(C)=O)C(OC(C)=O)C3OC(C)=O)c(=S)c2C#N)cc1 (configuration not stated)")
"> 100 µM (inactive)"
>>> endpoint_result("C=CC[C@H](N=C(SC)SC)C(=O)N1C(=O)N(C)[C@@H](C)[C@H]1c1ccccc1")
"33.8 µM (inactive)"
>>> endpoint_result("O=C(Nc1ccccc1)c1cc(S(=O)(=O)n2ccnc2O)c(S)cc1Cl")
"> 100 µM (inactive)"
